Ref: patent US20240327505A1

measured.on: SARS-CoV-2 spike S2 protein (SARS-CoV-2, UniProt P0DTC2 686-1213)
Below, each entry is listed with its recorded koff.
reported.endpoint: koff

>>> recorded_value("AB-009293 (antibody, V domains shown) VH: QAQLVESGGGVVQPGRSLRLSCAASGFNFNNYGMHWVRLAAGKGLEWVAFISYEGSITHYADSVKGRFTVSRDFSKNTLYLQMNRLTTGDTAVYYCAKRREVLHLWRDEMDVWGQGTTVTVSS VL: DIQMTQSPPSLSASVGDRVTFTCRASQDITNSLAWFQQRPGKAPKSLIYAASTLHSGVPSKFSGSGSGTDFTLTITSLQPEDVATYYCQQYKTYPFTFGQGTRLEIK")
"3.25e-07 s⁻¹"
>>> recorded_value("AB-009074 (antibody, V domains shown) VH: QVQLVESGGGVVQPGRSLRLSCAASGFTFSSYGMHWVRQAPGKGLEWVAVIWYDGSNKYYADSVKGRFTISRDNSKNTLYLQMNSLRAEDTAVYYCAREGLVGATTGFDYWGQGTLVTVSS VL: SYELTQPPSVSVSPGQTARITCSGDALPKKYAYWYQQKSGQAPVLVIYEDSKRPSGIPERFSGSSSGTMATLTISGAQVEDEADYYCYSTDSSGNHGVFGTGTKVTVL")
"0.0011 s⁻¹"
